Listing of recorded pIC50 by entry.
molecular target: Cyp21 enzyme (Human HEK 293-Cyp21 stable transfected cells) (Homo sapiens); construct: expressed in transfected cells; test: CYP21-HEK293 enzymatic assay (IC50) (Biological Example 11); assay type: cell-based; details: HEK 293-Cyp21 cells; read-out: Biological Example No. 11: CYP21-HEK293 enzymatic assay IC50
pIC50: −log10 of the molar value.

C[C@]12CC[C@H]3[C@@H](CC(CO)C4=CC(=O)CC[C@@]43C)C1=CC=C2c1cccnc1 (stereo partly shown) [Compound 340] ... < 7.00
C[C@]12CCC3C(CCC4=CC(=O)CC[C@@]43C)C1=CC=C2c1cncc(Cl)c1 (stereo partly shown) [Compound 359] ... < 6.00
C[C@]12CCC(=O)C=C1C(C1CC1)C[C@@H]1[C@@H]2CC[C@]2(C)C(c3cccnc3)=CC[C@@H]12 (stereo partly shown) [Compound 339] ... < 6.00
C[C@]12CCNC(=O)C=C1C1CC1[C@@H]1[C@@H]2CC[C@]2(C)C(c3cccnc3)=CC[C@@H]12 (stereo partly shown) [Compound 382] ... < 7.00
C=C1C[C@@H]2[C@H](CC[C@]3(C)C(c4cncc(F)c4)=CC[C@@H]23)[C@@]2(C)C=CC(=O)C=C12 [Compound 320] ... < 7.00
CC1CC2C(CC[C@]3(C)C(c4cccnc4)=CCC23)[C@@]2(C)C=CC(=NO)C=C12 (stereo partly shown) [Compound 367] ... < 6.00
CC1C[C@@H]2[C@H](CC[C@]3(C)C(c4cncc(C(F)F)c4)=CC[C@@H]23)[C@@]2(C)C=CC(=O)C=C12 (stereo partly shown) [Compound 346] ... < 6.00
C[C@]12CCC3C(CCC4=CC(=O)NCC[C@@]43C)C1=CC=C2c1cncc(C(F)F)c1 (stereo partly shown) [Compound 390] ... < 6.00

Task: Param item = C[C@]12CCC(=O)C=C1C(c1ccccc1)CC1C2CC[C@]2(C)C(c3cncc(F)c3)=CCC12 (stereo partly shown) [Compound 337] ; retrieve measured pIC50.
Output: < 6.00

Task: Param item = C[C@]12CCC(=O)C=C1C(n1nccn1)CC1C2CC[C@]2(C)C(c3cccnc3)=CCC12 (stereo partly shown) [Compound 336] ; retrieve measured pIC50.
Output: < 6.00

Task: Param item = C[C@]12CCC(=O)C=C1C=CC1C2CC[C@]2(C)C(c3cccnc3)=CCC12 (stereo partly shown) [Compound 408] ; retrieve measured pIC50.
Output: < 7.00

Task: Param item = CC1CC2C3=CC=C(c4cncc(C(F)F)c4)[C@@]3(C)CCC2[C@@]2(C)CCNC(=O)C=C12 (stereo partly shown) [Compound 391] ; retrieve measured pIC50.
Output: < 6.00

Task: Param item = CC1C(=O)CC[C@@]2(C)C1CC[C@@H]1[C@@H]2CC[C@]2(C)C(c3cccnc3)=CC[C@@H]12 (stereo partly shown) [Compound 303] ; retrieve measured pIC50.
Output: < 6.00

---

Listing of recorded IC50 by entry.
Target: Cyp21 enzyme (Human HEK 293-Cyp21 stable transfected cells) (Homo sapiens, UniProt P08686)
Construct: expressed in transfected cells
Sequence (P08686 1-495): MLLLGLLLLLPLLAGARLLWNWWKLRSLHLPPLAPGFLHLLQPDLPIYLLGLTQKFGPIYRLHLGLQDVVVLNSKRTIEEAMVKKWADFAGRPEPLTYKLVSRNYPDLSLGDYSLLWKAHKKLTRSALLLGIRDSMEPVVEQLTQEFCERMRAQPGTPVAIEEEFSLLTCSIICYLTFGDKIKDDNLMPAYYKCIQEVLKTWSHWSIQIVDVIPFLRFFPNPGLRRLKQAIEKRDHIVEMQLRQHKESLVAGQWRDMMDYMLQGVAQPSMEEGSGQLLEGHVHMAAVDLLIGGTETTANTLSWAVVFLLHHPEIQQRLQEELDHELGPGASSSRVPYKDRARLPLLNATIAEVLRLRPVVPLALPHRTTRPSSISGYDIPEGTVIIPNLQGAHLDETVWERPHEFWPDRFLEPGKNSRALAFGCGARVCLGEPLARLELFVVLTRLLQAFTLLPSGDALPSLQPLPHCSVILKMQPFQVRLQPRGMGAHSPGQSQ
Experiment: CYP21-HEK293 enzymatic assay (IC50) (Biological Example 11)
Assay type: cell-based
Conditions: HEK 293-Cyp21 cells; read-out: Biological Example No. 11: CYP21-HEK293 enzymatic assay IC50

C[C@]12CCC(=O)C=C1CCC1C2CC[C@]2(C)C(c3cncc(C(F)F)c3)=CCC12 (some centres unmarked) ... > 1 µM
Cc1cnc(F)c(C2=CCC3C4CCC5=CC(=O)CC[C@]5(C)C4CC[C@]23C)c1 (some centres unmarked) ... > 1 µM
C[C@]12CCC3C(CCC45CC4NC(=O)CC[C@]35C)C1CC=C2c1cccnc1 (some centres unmarked) ... > 1 µM
CC1=C2CC[C@@H]3[C@H](CC[C@]4(C)C(c5cccnc5)=CC[C@@H]34)[C@@]2(C)CCC1=O ... > 1 µM
C[C@]12CC[C@H]3[C@@H](CC(C4CC4)C4=CC(=O)CC[C@@]43C)C1=CC=C2c1cccnc1 (some centres unmarked) ... > 0.1 µM
CCC1CC2C(CC[C@]3(C)C(c4cncc(F)c4)=CCC23)[C@@]2(C)CCC(=O)C=C12 (some centres unmarked) ... > 1 µM
CC1CC2C3=CC=C(c4cncc(F)c4)[C@@]3(C)CCC2[C@@]2(C)CCNC(=O)C=C12 (some centres unmarked) ... 0.01 to 0.1 µM
CCC1CC2C(CC[C@]3(C)C(c4cccnc4)=CCC23)[C@@]2(C)CCC(=O)C=C12 (some centres unmarked) ... 0.01 to 0.1 µM
C[C@]12CC[C@H]3[C@@H](CC(c4ccccc4)C4=CC(=O)CC[C@@]43C)C1=CC=C2c1cccnc1 (some centres unmarked) ... > 1 µM
C[C@]12CCC(=O)C=C1C(C1CC1)C[C@@H]1[C@@H]2CC[C@]2(C)C(c3cncc(F)c3)=CC[C@@H]12 (some centres unmarked) ... > 1 µM

Task: Param item = C[C@]12CCC(=O)C=C1C(F)C[C@@H]1[C@@H]2CC[C@]2(C)C(c3cncc(F)c3)=CC[C@@H]12 (some centres unmarked) ; retrieve measured IC50.
Output: > 1 µM

# credit: patent US20130252930A1
